Tested on: K98450-129-R-PDC complex spheroid growth, percent test/control
protocol.details: Anticancer human tumor K98450-129-R-PDC patient-derived colon adenocarcinoma cell line growth inhibition [RAS]
test.settings: second compound 0.01 µM; first compound 0.316 µM; stronger effect = lower value
Friendly reminder: viability, T/C below 40% is 1 (yes), at or above is 0 (no).

molecule	category.label
Cc1nc(N2CCC3(CC2)COC(C)C3N)c(CO)nc1Sc1ccnc(N)c1Cl (centres undefined) + C=CC(=O)N1CCN(c2nc(OCC3CCCN3C)nc3c(F)c(-c4nc(N)cc(C)c4C(F)(F)F)c(Cl)cc23)C(C)C1	0 (no)
Nc1ccn(C2OC(CO)C(O)C2(F)F)c(=O)n1 (centres undefined) + C=CC(=O)N1CCN(c2nc(OCC3CCCN3C)nc3c(F)c(-c4nc(N)cc(C)c4C(F)(F)F)c(Cl)cc23)C(C)C1	1 (yes)
CC(C)NCC(C(=O)N1CCN(c2ncnc3c2C(C)CC3O)CC1)c1ccc(Cl)cc1 (centres undefined) + C=CC(=O)N1CCN(c2nc(OCC3CCCN3C)nc3c(F)c(-c4nc(N)cc(C)c4C(F)(F)F)c(Cl)cc23)C(C)C1	0 (no)
O=C(c1ccc(F)c(F)c1Nc1ccc(I)cc1F)N1CC(O)([C@@H]2CCCCN2)C1 + C=CC(=O)N1CCN(c2nc(OCC3CCCN3C)nc3c(F)c(-c4nc(N)cc(C)c4C(F)(F)F)c(Cl)cc23)C(C)C1	1 (yes)
C[C@@H](NC(=O)c1ncnc(N)c1Cl)c1ncc(C(=O)Nc2cc(C(F)(F)F)c(Cl)cn2)s1 + C=CC(=O)N1CCN(c2nc(OCC3CCCN3C)nc3c(F)c(-c4nc(N)cc(C)c4C(F)(F)F)c(Cl)cc23)C(C)C1	0 (no)
CC(=O)OC12COC1CC(O)C1(C)C(=O)C(O)C3=C(C)C(OC(=O)C(O)C(NC(=O)OC(C)(C)C)c4ccccc4)CC(O)(C(OC(=O)c4ccccc4)C21)C3(C)C (centres undefined) + C=CC(=O)N1CCN(c2nc(OCC3CCCN3C)nc3c(F)c(-c4nc(N)cc(C)c4C(F)(F)F)c(Cl)cc23)C(C)C1	1 (yes)
NC1c2ccccc2OC12CCN(c1cnc3c(N4CCCc5ncccc54)n[nH]c3n1)CC2 (centres undefined) + C=CC(=O)N1CCN(c2nc(OCC3CCCN3C)nc3c(F)c(-c4nc(N)cc(C)c4C(F)(F)F)c(Cl)cc23)C(C)C1	1 (yes)
CCN1CCN(Cc2ccc(Nc3ncc(F)c(-c4cc(F)c5nc(C)n(C(C)C)c5c4)n3)nc2)CC1 + C=CC(=O)N1CCN(c2nc(OCC3CCCN3C)nc3c(F)c(-c4nc(N)cc(C)c4C(F)(F)F)c(Cl)cc23)C(C)C1	0 (no)
CC(Nc1ccc2c(c1)OCCn1cc(N3C(=O)OCC3C(F)F)nc1-2)C(N)=O (centres undefined) + C=CC(=O)N1CCN(c2nc(OCC3CCCN3C)nc3c(F)c(-c4nc(N)cc(C)c4C(F)(F)F)c(Cl)cc23)C(C)C1	0 (no)

====

Tested on: K98450-129-R-PDC complex spheroid growth, percent test/control
protocol.details: Anticancer human tumor K98450-129-R-PDC cell line growth inhibition [RAS];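 also: luminescence used as a proxy for viable cell amount; spheroids exposed to agents for seven days before the viability readout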
test.settings: second compound 0.00949 µM; first compound 10 µM; stronger effect = lower value
We begin with a simple list: items and their reported viability, T/C.

compound	viability, T/C / %
CC(=O)OC12COC1CC(O)C1(C)C(=O)C(O)C3=C(C)C(OC(=O)C(O)C(NC(=O)OC(C)(C)C)c4ccccc4)CC(O)(C(OC(=O)c4ccccc4)C21)C3(C)C (configuration not stated) + CCn1c(-c2cc(N3CCN(C)CC3)cnc2C(C)OC)c2c3cc(ccc31)-c1csc(n1)CC(NC(=O)C1CC1C)C(=O)N1CCCC(N1)C(=O)OCC(C)(C)C2	19.2
CC(Nc1ccc2c(c1)OCCn1cc(N3C(=O)OCC3C(F)F)nc1-2)C(N)=O (configuration not stated) + CCn1c(-c2cc(N3CCN(C)CC3)cnc2C(C)OC)c2c3cc(ccc31)-c1csc(n1)CC(NC(=O)C1CC1C)C(=O)N1CCCC(N1)C(=O)OCC(C)(C)C2	51

====

Below, each of the compounds is paired with its reported viability, T/C value.
Tested on: K98450-129-R-PDC complex spheroid growth, percent test/control
protocol.details: Anticancer human tumor K98450-129-R-PDC cell line growth inhibition [RAS];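 also: luminescence used as a proxy for viable cell amount; spheroids exposed to agents for seven days before the viability readout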
test.settings: second compound 0.1 µM; first compound 0.01 µM; stronger effect = lower value

compound	viability, T/C, %
CCN1CCN(Cc2ccc(Nc3ncc(F)c(-c4cc(F)c5nc(C)n(C(C)C)c5c4)n3)nc2)CC1 + C=CC(=O)N1CCN(c2nc(OCC3CCCN3C)nc3c(F)c(-c4nc(N)cc(C)c4C(F)(F)F)c(Cl)cc23)C(C)C1	55.1
O=C(c1ccc(F)c(F)c1Nc1ccc(I)cc1F)N1CC(O)([C@@H]2CCCCN2)C1 + C=CC(=O)N1CCN(c2nc(OCC3CCCN3C)nc3c(F)c(-c4nc(N)cc(C)c4C(F)(F)F)c(Cl)cc23)C(C)C1	47.6
O=C(c1ccc(F)c(F)c1Nc1ccc(I)cc1F)N1CC(O)([C@@H]2CCCCN2)C1 + C#Cc1c(F)ccc2cc(O)cc(-c3ncc4c(N5CC6CCC(C5)N6)nc(OCC56CCCN5CC(F)C6)nc4c3F)c12	100

====

Test system: K98450-129-R-PDC complex spheroid growth, percent test/control
protocol.details: Anticancer human tumor K98450-129-R-PDC cell line growth inhibition [RAS]; active means viability on the fitted dose curve at most 10% of control; inactive means the rest;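 also: luminescence used as a proxy for viable cell amount; spheroids exposed to agents for seven days before the viability readout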
test.settings: second compound 0.0949 µM; first compound 0.1 µM
Outcomes: yes = active, no = inactive

compound	target.or.test.system	category.label
NC1c2ccccc2OC12CCN(c1cnc3c(N4CCCc5ncccc54)n[nH]c3n1)CC2 (configuration not stated) + CCn1c(-c2cccnc2C(C)OC)c2c3cc(ccc31)N1CCOC(CC(NC(=O)C(C(C)C)N(C)C(=O)C3(F)CCN(C(=O)C#CC(C)(C)N(C)C)CC3)C(=O)N3CCCC(N3)C(=O)OCC(C)(C)C2)C1	K98450-129-R-PDC complex spheroid growth, percent test/control	yes
CC(Nc1ccc2c(c1)OCCn1cc(N3C(=O)OCC3C(F)F)nc1-2)C(N)=O (configuration not stated) + CCn1c(-c2cccnc2C(C)OC)c2c3cc(ccc31)N1CCOC(CC(NC(=O)C(C(C)C)N(C)C(=O)C3(F)CCN(C(=O)C#CC(C)(C)N(C)C)CC3)C(=O)N3CCCC(N3)C(=O)OCC(C)(C)C2)C1	K98450-129-R-PDC complex spheroid growth, percent test/control	no
C[C@@H](NC(=O)c1ncnc(N)c1Cl)c1ncc(C(=O)Nc2cc(C(F)(F)F)c(Cl)cn2)s1 + CCn1c(-c2cccnc2C(C)OC)c2c3cc(ccc31)N1CCOC(CC(NC(=O)C(C(C)C)N(C)C(=O)C3(F)CCN(C(=O)C#CC(C)(C)N(C)C)CC3)C(=O)N3CCCC(N3)C(=O)OCC(C)(C)C2)C1	K98450-129-R-PDC complex spheroid growth, percent test/control	no
Nc1ccn(C2OC(CO)C(O)C2(F)F)c(=O)n1 (configuration not stated) + CCn1c(-c2cccnc2C(C)OC)c2c3cc(ccc31)N1CCOC(CC(NC(=O)C(C(C)C)N(C)C(=O)C3(F)CCN(C(=O)C#CC(C)(C)N(C)C)CC3)C(=O)N3CCCC(N3)C(=O)OCC(C)(C)C2)C1	K98450-129-R-PDC complex spheroid growth, percent test/control	no
C=CC(=O)N1CCN(c2nc(OCC3CCCN3C)nc3c(F)c(-c4nc(N)cc(C)c4C(F)(F)F)c(Cl)cc23)C(C)C1 (configuration not stated) + CCn1c(-c2cccnc2C(C)OC)c2c3cc(ccc31)N1CCOC(CC(NC(=O)C(C(C)C)N(C)C(=O)C3(F)CCN(C(=O)C#CC(C)(C)N(C)C)CC3)C(=O)N3CCCC(N3)C(=O)OCC(C)(C)C2)C1	K98450-129-R-PDC complex spheroid growth, percent test/control	no
CCN1CCN(Cc2ccc(Nc3ncc(F)c(-c4cc(F)c5nc(C)n(C(C)C)c5c4)n3)nc2)CC1 + CCn1c(-c2cccnc2C(C)OC)c2c3cc(ccc31)N1CCOC(CC(NC(=O)C(C(C)C)N(C)C(=O)C3(F)CCN(C(=O)C#CC(C)(C)N(C)C)CC3)C(=O)N3CCCC(N3)C(=O)OCC(C)(C)C2)C1	K98450-129-R-PDC complex spheroid growth, percent test/control	no
CC1(O)CCCC1n1c(=O)c(C(F)F)cc2cnc(NC3CCN(S(C)(=O)=O)CC3)nc21 (configuration not stated) + CCn1c(-c2cccnc2C(C)OC)c2c3cc(ccc31)N1CCOC(CC(NC(=O)C(C(C)C)N(C)C(=O)C3(F)CCN(C(=O)C#CC(C)(C)N(C)C)CC3)C(=O)N3CCCC(N3)C(=O)OCC(C)(C)C2)C1	K98450-129-R-PDC complex spheroid growth, percent test/control	no
